GI50 values for the compounds below.
- System: human SKM-1 acute myeloid leukemia cells
- assay_comment: SKM-1 antiproliferation cell-based assay (ATPlite)
- condition_label: Homo sapiens, SKM-1, 96 h, SKM-1 antiproliferation assay, 4 days, Table C2

Recorded results for 5 compounds are shown here.
Need GI50 of CC[C@]1(O)CCN(c2cc(-c3cc(F)cc(-c4ccc(-n5ccn(C)c5=O)c(Cl)c4)c3O)ccn2)C1 [Example 819] , thanks. 30 to 300 nM

Next compound: CC(=O)Nc1ccc(-c2cccc(-c3cc(C#N)nc(N4CCNCC4)c3)c2O)cc1F [Example 313] ≥ 3000 nM

Now try COC(=O)c1cc(-c2cccc(-c3ccc(NC(C)=O)c(F)c3)c2O)cc(N2CCNCC2)n1 [Example 260] . ≥ 3000 nM

Now consider CN[C@H]1CCCN(c2cc(-c3cc(F)cc(-c4ccc(-n5ccn(C)c5=O)c(Cl)c4)c3O)ccn2)C1 [Example 440] . 30 to 300 nM

And then CN1CCN(c2ccc(-c3cc(F)cc(-c4cc(N5CCC[C@H](N)C5)c(=O)n(C)c4)c3O)cc2Cl)C1=O [Example 378] , what is it? 30 to 300 nM

Next:
Which GI50 is reported for this compound? CN1CCN(c2ccc(-c3cc(F)cc(-c4ccnc(N5CCNCC5=O)c4)c3O)cc2Cl)C1=O [Example 449] 300 to 3000 nM

What do we get for CC(=O)Nc1cc(-c2cc(F)cc(-c3ccc(N4CCN(C)C4=O)c(Cl)c3)c2O)cc(N2CCNCC2)n1 [Example 433] ? 0.3 to 30 nM

Try the compound CC(=O)NC(C)(C)C#Cc1cccc(-c2cc(F)cc(-c3ccc(-n4ccn(C)c4=O)c(Cl)c3)c2O)c1 [Example 795] 300 to 3000 nM

Next up: CC(C)N1C2CCC1CN(c1cncc(-c3cc(F)cc(-c4ccc(-n5ccn(C)c5=O)c(Cl)c4)c3O)c1)C2 [Example 740] 0.3 to 30 nM

What do you have for Cc1ncc(-c2cc(F)cc(-c3ccc(-n4ccn(C)c4=O)c(Cl)c3)c2O)cc1N1CCN(C(C)(C)C)CC1 [Example 791] ? 0.3 to 30 nM

Follow-up entry: CC(=O)Nc1ccc(-c2cccc(-c3cc(NCCO)nc(N4CCNCC4)c3)c2O)cc1F [Example 333] 30 to 300 nM

Ok, now CC(=O)Nc1ccc(-c2cccc(-c3cc(C)nc(N4CCNCC4)c3)c2O)cc1F [Example 244] 30 to 300 nM

Subsequent entry: CC(=O)Nc1ccc(-c2cccc(-c3cccc(N4CCN[C@H](C)C4)c3)c2O)cc1F [Example 193] 300 to 3000 nM

What do you get for O=C1CCC(=O)N1c1ccc(-c2cccc(-c3ccnc(N4CCNCC4)c3)c2O)cc1F [Example 303] ? ≥ 3000 nM

Same lookup for CC1CCN(c2ccc(-c3cccc(-c4ccnc(N5CCNCC5)c4)c3O)cc2Cl)C1=O (stereo not drawn) [Example 328] , please. 300 to 3000 nM
